# assayTarget: Ataxin-2 (Homo sapiens) (UniProt Q99700)
# Sequence (Q99700 whole entry): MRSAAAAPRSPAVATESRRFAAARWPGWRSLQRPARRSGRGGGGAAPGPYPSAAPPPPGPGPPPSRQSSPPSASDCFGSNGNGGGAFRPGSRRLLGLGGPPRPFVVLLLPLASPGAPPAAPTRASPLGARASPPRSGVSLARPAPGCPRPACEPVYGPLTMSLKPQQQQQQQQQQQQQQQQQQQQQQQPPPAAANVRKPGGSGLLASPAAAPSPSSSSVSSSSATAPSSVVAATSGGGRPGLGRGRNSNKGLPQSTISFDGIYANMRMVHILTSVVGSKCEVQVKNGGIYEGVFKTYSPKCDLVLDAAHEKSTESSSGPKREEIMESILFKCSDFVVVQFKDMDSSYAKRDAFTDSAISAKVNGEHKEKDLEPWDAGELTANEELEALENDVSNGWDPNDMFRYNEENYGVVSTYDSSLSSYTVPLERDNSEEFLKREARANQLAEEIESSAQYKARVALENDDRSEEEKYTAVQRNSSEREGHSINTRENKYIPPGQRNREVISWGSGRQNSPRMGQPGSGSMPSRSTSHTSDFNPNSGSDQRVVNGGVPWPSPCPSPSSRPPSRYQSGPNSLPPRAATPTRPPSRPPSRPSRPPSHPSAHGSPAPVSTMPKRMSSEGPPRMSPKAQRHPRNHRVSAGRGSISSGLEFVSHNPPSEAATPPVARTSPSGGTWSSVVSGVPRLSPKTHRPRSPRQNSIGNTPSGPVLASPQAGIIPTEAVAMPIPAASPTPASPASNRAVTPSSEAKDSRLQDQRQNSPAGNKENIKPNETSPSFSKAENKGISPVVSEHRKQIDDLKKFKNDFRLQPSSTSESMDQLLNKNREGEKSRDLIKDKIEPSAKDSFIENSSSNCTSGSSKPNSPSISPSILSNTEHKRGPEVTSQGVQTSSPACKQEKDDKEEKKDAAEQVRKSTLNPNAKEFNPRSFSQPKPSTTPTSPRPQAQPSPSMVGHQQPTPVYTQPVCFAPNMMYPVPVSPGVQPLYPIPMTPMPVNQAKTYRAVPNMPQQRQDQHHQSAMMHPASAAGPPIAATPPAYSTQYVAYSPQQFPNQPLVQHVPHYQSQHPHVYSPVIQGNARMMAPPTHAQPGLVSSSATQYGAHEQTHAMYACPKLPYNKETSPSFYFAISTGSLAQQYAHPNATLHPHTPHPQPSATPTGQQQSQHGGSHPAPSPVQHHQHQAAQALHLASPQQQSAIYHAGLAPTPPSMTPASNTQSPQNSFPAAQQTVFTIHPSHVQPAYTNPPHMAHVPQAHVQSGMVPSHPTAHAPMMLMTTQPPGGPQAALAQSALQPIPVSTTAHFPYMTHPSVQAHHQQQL
# protocolNotes: qHTS for Inhibitors of ATXN expression.
# Assay type: functional
Hit rate of the full screen: of about 400,000 compounds, about 2,100 (0.53%) were called active. Another 14% or so got no clear call; they are omitted. The rule behind the calls is not given here. This is one part of a sample in which actives are shown more often than they occur.
Outcomes: active, inactive

[
  {
    "compound": "COc1ccc(C[C@H]2CN3C(=NC[C@@H]3Cc3ccccc3)N2CCNC(=O)c2ccc(C)c(Br)c2)cc1",
    "qualitativeLabel": "active"
  },
  {
    "compound": "O=C(COC(=O)c1cccnc1)NC1CCCc2ccccc21 (stereo unspecified)",
    "qualitativeLabel": "inactive"
  },
  {
    "compound": "COc1c2c(c(OC)c3c1c(=O)c1ccccc1n3C)OCO2",
    "qualitativeLabel": "inactive"
  },
  {
    "compound": "O=C(O)c1cccc(Nc2nc(-c3cc4ccccc4oc3=O)cs2)c1",
    "qualitativeLabel": "inactive"
  },
  {
    "compound": "COc1ccc(C[C@H]2CN3C(=NC[C@@H]3C(C)C)N2CCNC(=O)c2ccc(C)c(Br)c2)cc1",
    "qualitativeLabel": "active"
  },
  {
    "compound": "O=C(NCc1nnc2c3ccccc3c(-c3ccccc3)nn12)c1ccc(Cl)cc1",
    "qualitativeLabel": "inactive"
  },
  {
    "compound": "COCc1cc(=O)oc2cc(NS(=O)(=O)c3ccc(C)cc3)ccc12",
    "qualitativeLabel": "inactive"
  },
  {
    "compound": "COc1cccc(C(=O)NCCn2ccc3ccccc32)c1",
    "qualitativeLabel": "inactive"
  },
  {
    "compound": "O=C(OCc1ccccc1)N1CCc2ccccc21",
    "qualitativeLabel": "inactive"
  },
  {
    "compound": "COc1ccc(COC(=O)C2CC(=O)N(Cc3ccccc3)C2)cc1 (stereo unspecified)",
    "qualitativeLabel": "inactive"
  },
  {
    "compound": "COc1cccc(CNC(=O)c2ccc(C)c(NC3=NC4CS(=O)(=O)CC4S3)c2)c1 (stereo unspecified)",
    "qualitativeLabel": "inactive"
  },
  {
    "compound": "COc1cccc(CN2CCNC(=O)C2CC(=O)NC2CCOCC2)c1OC (stereo unspecified)",
    "qualitativeLabel": "inactive"
  },
  {
    "compound": "COc1ccc(-c2cc(C(=O)Nc3ccc(S(=O)(=O)Nc4onc(C)c4C)cc3)c3ccccc3n2)cc1",
    "qualitativeLabel": "inactive"
  },
  {
    "compound": "CCOC(=O)NC(=O)/C(=C/Nc1ccc(Cl)c(Cl)c1Cl)C(C)=O",
    "qualitativeLabel": "inactive"
  },
  {
    "compound": "O=C1N/C(=C/c2cccn2-c2ccc(F)cc2)C(=O)N1Cc1ccccc1F",
    "qualitativeLabel": "inactive"
  },
  {
    "compound": "COc1ccc(C[C@H]2CN3C(=NC[C@@H]3Cc3ccc(O)cc3)N2CCNC(=O)c2ccc(C)c(Br)c2)cc1",
    "qualitativeLabel": "active"
  }
]
